# testedSystem: CYP2C19 (Homo sapiens, UniProt P33261)
# Sequence (P33261 whole entry): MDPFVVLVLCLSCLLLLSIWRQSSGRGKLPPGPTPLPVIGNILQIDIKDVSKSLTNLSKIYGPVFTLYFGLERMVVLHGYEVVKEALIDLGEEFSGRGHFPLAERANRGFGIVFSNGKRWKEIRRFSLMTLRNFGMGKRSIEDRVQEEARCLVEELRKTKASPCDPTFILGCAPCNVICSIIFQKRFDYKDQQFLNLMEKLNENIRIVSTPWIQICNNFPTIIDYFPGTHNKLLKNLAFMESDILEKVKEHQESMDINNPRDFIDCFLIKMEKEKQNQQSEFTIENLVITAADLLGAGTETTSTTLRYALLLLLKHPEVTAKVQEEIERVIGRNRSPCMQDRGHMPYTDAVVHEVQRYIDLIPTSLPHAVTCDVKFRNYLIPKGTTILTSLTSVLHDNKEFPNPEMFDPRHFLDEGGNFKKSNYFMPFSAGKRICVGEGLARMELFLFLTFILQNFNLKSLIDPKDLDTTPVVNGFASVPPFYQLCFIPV
# experimentNotes: in vitro
# runParameters: microsomes
propertyLabel: inhibition at 10 µM

So, CCCCCCCC/C=C\CCCCCCCC(=O)NC(CO)(CO)CO ? Its inhibition at 10 µM was < 20%

* * *

# testedSystem: UniProtKB P05177
# Sequence (P05177 whole entry): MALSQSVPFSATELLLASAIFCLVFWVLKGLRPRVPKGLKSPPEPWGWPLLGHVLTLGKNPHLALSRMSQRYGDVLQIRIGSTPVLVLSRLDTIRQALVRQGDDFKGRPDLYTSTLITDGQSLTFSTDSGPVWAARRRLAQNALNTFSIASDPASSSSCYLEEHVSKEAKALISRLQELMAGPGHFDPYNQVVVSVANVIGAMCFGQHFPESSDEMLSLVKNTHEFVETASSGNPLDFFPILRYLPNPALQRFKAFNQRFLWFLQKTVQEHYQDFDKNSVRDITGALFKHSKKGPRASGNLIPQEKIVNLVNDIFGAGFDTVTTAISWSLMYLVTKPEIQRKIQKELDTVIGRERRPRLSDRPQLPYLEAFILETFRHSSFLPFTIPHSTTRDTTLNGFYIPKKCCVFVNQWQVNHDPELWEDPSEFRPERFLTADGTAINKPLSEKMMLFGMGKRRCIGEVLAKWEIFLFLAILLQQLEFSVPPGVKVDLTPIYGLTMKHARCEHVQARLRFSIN
# experimentNotes: Human liver microsomes P450 inhibition, CYP1A2
# runParameters: human, microsomes
propertyLabel: inhibition at 10 µM

So, CCCCCCCC/C=C\CCCCCCCC(=O)NC(CO)(CO)CO [Compound 13] ? Its inhibition at 10 µM was < 20%

* * *

# testedSystem: CYP2D6 (Homo sapiens, UniProt P10635)
# Sequence (P10635 whole entry): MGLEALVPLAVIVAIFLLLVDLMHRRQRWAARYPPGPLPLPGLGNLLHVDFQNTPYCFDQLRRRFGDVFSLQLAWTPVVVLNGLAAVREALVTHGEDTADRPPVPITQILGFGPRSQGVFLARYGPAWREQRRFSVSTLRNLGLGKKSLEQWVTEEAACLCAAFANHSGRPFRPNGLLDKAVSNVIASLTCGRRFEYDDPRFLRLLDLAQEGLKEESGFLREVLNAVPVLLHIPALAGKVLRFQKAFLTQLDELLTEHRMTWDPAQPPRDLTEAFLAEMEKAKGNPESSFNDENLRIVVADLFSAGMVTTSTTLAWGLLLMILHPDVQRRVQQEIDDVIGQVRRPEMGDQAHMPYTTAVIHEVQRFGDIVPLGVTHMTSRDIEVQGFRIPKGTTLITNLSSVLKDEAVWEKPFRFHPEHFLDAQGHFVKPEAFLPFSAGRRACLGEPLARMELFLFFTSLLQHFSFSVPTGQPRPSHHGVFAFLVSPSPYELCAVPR
# experimentNotes: in vitro
# runParameters: microsomes
propertyLabel: inhibition at 10 µM

So, CCCCCCCC/C=C\CCCCCCCC(=O)NC(CO)(CO)CO [Compound 13] ? Its inhibition at 10 µM was < 20%

* * *

# testedSystem: CYP3A4 (Homo sapiens, UniProt P08684)
# Sequence (P08684 whole entry): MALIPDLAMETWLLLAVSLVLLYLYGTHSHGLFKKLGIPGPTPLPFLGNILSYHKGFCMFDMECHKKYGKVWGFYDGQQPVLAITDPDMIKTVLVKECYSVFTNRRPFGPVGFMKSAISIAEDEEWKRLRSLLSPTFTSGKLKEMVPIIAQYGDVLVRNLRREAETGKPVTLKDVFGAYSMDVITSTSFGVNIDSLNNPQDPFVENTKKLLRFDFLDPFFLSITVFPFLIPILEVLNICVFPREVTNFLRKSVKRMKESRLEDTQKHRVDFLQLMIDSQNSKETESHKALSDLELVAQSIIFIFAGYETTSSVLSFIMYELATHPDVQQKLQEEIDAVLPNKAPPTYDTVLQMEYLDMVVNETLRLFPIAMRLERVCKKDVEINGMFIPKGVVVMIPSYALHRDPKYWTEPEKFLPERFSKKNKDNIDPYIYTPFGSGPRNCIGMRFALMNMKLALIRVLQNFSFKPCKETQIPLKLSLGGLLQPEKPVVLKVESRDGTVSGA
# experimentNotes: in vitro
# runParameters: microsomes
propertyLabel: inhibition at 10 µM

So, CCCCCCCC/C=C\CCCCCCCC(=O)NC(CO)(CO)CO ? Its inhibition at 10 µM was < 20%

* * *

# testedSystem: CYP2B6 (Homo sapiens)
# Sequence (P20813 whole entry): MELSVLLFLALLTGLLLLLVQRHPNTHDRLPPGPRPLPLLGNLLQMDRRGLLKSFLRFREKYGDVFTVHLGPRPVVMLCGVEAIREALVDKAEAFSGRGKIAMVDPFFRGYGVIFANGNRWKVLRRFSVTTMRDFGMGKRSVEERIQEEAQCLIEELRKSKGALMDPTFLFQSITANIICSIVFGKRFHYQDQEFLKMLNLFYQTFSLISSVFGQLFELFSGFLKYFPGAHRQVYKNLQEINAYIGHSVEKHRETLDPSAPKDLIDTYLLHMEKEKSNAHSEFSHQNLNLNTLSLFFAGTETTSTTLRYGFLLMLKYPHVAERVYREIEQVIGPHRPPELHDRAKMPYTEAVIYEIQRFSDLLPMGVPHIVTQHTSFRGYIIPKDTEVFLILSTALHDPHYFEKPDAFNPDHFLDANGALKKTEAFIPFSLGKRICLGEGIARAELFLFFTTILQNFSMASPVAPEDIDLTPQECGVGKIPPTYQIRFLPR
# experimentNotes: in vitro
# runParameters: microsomes
propertyLabel: inhibition at 10 µM

So, CCCCCCCC/C=C\CCCCCCCC(=O)NC(CO)(CO)CO ? Its inhibition at 10 µM was > 50%

* * *

# testedSystem: CYP2C8 (Homo sapiens, UniProt P10632)
# Sequence (P10632 whole entry): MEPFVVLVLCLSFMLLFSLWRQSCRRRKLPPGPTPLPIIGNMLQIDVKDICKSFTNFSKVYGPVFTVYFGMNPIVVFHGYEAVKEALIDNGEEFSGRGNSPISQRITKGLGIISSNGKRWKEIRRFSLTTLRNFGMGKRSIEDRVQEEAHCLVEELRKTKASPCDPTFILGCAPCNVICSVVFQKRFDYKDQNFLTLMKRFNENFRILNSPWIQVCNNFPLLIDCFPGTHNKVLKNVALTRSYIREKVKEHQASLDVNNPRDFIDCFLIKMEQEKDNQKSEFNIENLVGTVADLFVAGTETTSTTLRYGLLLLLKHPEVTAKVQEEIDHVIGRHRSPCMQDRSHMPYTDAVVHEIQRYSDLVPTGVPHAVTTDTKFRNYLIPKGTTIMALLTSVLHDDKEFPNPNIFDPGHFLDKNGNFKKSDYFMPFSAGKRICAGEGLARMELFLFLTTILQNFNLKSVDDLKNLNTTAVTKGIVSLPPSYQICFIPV
# experimentNotes: in vitro
# runParameters: microsomes
propertyLabel: inhibition at 10 µM

So, CCCCCCCC/C=C\CCCCCCCC(=O)NC(CO)(CO)CO ? Its inhibition at 10 µM was < 20%
